B1: HDAC6 (parent)
chain: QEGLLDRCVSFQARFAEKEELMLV

# Variants of: B1
# ASSAY METHOD TEXT: protein stability index of a GFP-peptide fusion (GPS, HEK-293T) (PSI 1-6); higher = more stable;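 note: lentivirally expressed fusions sorted by FACS into six bins by GFP to DsRed ratio, PSI derived from sequencing read proportions per bin multiplied by bin number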
# CONDITIONS: c terminus: a fixed tail appended
ASSAY METRIC: protein stability index
In your answer, state the number alone without any accompanying words.

These recorded examples may help you get a feel for the data.
# VARIANT STRING, ASSAY VALUE
measured = [
    ("A16W", 1.03),
    ("R14V", 1.38),
    ("G3N", 2.93),
    ("C8P", 1.87),
    ("V24Y", 2.27),
]

protein stability index for A13S ? 1.57

Given the variant L21S , what is its reported protein stability index? 4.16

State the recorded protein stability index for this entry: A16M 1.87
